- Target Of Assay: human melatonin receptor (human ML1A) (Homo sapiens, UniProt P48039)
- Construct: expressed in transfected cells; host or cells: COS-1 cells (transient, pcDNAI, DEAE-dextran); membrane homogenates
- Sequence (P48039 whole entry): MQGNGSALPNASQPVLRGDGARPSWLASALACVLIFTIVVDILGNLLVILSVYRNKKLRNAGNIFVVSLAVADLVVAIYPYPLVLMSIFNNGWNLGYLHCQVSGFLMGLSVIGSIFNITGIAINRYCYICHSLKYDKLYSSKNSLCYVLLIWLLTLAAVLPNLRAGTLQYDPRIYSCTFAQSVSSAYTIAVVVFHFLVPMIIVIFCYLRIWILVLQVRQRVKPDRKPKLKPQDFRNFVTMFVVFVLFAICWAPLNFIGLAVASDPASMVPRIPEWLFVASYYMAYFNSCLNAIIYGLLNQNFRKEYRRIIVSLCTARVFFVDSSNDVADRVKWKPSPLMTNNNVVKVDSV
- Procedure Text: Melatonergic binding: displacement of 2-[125I]-iodomelatonin at the human melatonin receptor (human ML1A in COS-1 membranes)
- Measurement Setup: read-out: Binding affinity (IC50) at the human melatonin receptor; Table 5; displacement of 2[125I]-Iodomelatonin (100 pM), 37° C., 1 hour
- Method: The melatonergic binding of the compounds of Formula I was determined by a modification of the method of Reppert, S. M. et al. (Neuron, Volume 13, pages 1177-1185, 1994). […] The reagents, membranes, and other parameters used in the assay are described below: (a) 50 mM Tris buffer containing 12.5 mM MgCl2, and 2 mM EDTA (pH 7.4 at 37° C.). (b) Wash buffer: 20 mM Tris base containing 2 mM MgCl2 (pH 7.4 at room temperature). (c) 6-Chloromelatonin (10^-5 M final concentration). […]
pIC50: −log10 of the molar value.
Reported Endpoint: pIC50

QUERY: Please tell me the measured pIC50 for [2H]C([2H])([2H])Oc1cccc([C@@H]2C[C@H]2CNC(=O)CCC)c1 (relative stereo) ; system: human melatonin receptor (human ML1A) (Homo sapiens, UniProt P48039).
RESULT: > 8.30

* * *

- Target Of Assay: human melatonin receptor (human ML1A) (Homo sapiens)
- Construct: expressed in transfected cells; host or cells: COS-1 cells (transient, pcDNAI, DEAE-dextran); membrane homogenates
- Procedure Text: Melatonergic binding: displacement of 2-[125I]-iodomelatonin at the human melatonin receptor (human ML1A in COS-1 membranes)
- Measurement Setup: Table 5; displacement of 2[125I]-Iodomelatonin (100 pM), 37° C., 1 hour
- Procedure: The melatonergic binding of the compounds of Formula I was determined by a modification of the method of Reppert, S. M. et al. (Neuron, Volume 13, pages 1177-1185, 1994). […] The reagents, membranes, and other parameters used in the assay are described below: (a) 50 mM Tris buffer containing 12.5 mM MgCl2, and 2 mM EDTA (pH 7.4 at 37° C.). (b) Wash buffer: 20 mM Tris base containing 2 mM MgCl2 (pH 7.4 at room temperature). (c) 6-Chloromelatonin (10^-5 M final concentration). […]
pIC50: −log10 of the molar value.
Answer each item with its documented pIC50.

QUERY: Tell me its pIC50 given C#CC(C)=CCOc1cccc([C@@H]2C[C@H]2CNC(=O)CCC)c1 (relative stereo) as the entry.
RESULT: 7.40 to 8.30

QUERY: Return pIC50 (reported value) for this compound: CCCC(=O)NC[C@@H]1C[C@H]1c1ccccc1 (single isomer, unassigned)
RESULT: 6.60 to 7.40

QUERY: Using the record for CCCC(=O)NC[C@@H]1C[C@H]1c1cccc(OCC(C)C)c1 (relative stereo) , state its measured pIC50.
RESULT: 6.22 to 6.60

QUERY: Tell me pIC50 reported for CCCCCCCOc1cccc([C@@H]2C[C@H]2CNC(=O)CCC)c1 (relative stereo)
RESULT: 6.60 to 7.40

QUERY: Fill in pIC50 for record CCCCCCCCCOc1cccc([C@@H]2C[C@H]2CNC(=O)CCC)c1 (relative stereo)
RESULT: 6.60 to 7.40

QUERY: Given CCCC(=O)NC[C@@H]1C[C@H]1c1cccc(OCC=C(C)CCC=C(C)CCC=C(C)C)c1 (relative stereo) , respond with its pIC50.
RESULT: > 8.30

QUERY: Name the recorded pIC50 of the item CCCC(=O)NC[C@@H]1C[C@H]1c1cccc(OCC)c1 (relative stereo) in your answer.
RESULT: 7.40 to 8.30
